Measured binding signal by item
Tested Target: OsSMF1 (Oryza sativa, UniProt Q6ZLB0 1-436)
Sequence: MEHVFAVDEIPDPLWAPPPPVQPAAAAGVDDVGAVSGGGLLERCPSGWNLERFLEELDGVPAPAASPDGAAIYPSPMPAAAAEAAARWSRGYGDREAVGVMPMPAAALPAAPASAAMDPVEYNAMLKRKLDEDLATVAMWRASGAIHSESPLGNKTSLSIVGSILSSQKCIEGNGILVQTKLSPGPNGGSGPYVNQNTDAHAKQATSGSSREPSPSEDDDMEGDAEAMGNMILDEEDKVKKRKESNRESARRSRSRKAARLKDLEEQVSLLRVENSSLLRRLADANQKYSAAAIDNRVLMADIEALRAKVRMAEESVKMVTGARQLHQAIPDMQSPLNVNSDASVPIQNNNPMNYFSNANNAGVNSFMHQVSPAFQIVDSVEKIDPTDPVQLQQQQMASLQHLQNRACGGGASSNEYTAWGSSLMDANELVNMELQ
Assay Method Text: protein-binding microarray (RPBM); PBS, 2% BSA, 51.3 ng/ul salmon testes DNA, 50 uM zinc acetate, 200 nM TF, 25 C, 1 h; high values mean tight binding
Recorded Conditions: protein: recombinant; tags: N-terminal polyhistidine and DsRed monomer fusion (pET32a); chain copies: 2; label: CyDye5-dUTP incorporated in the synthesized complementary strand; 3' TTTTT single-stranded linker to array surface; dsDNA, one strand shown
The full ranking holds about 39,000 sequences; the median of “fluorescence intensity (a.u.)” is about 4,300, and the highest 2% start at about 39,000. Only a selection was taken, and the highest values are over-represented in it overall.
Measured Attribute: binding signal

[[record]]
sequence_content = "ACCACCCGAGACGCGACGTGGCGGCGGGCATGCAGCACCCCGGAGTCACCTAGTGCAG"
measured_attribute = "binding signal"
reported_measurement = "5050 fluorescence intensity (a.u.)"

[[record]]
sequence_content = "GGAGAGGGAGCGGGAGAGGGAGGATTGGAGGATGTGGGGACGGAGTCACCTAGTGCAG"
measured_attribute = "binding signal"
reported_measurement = "15400 fluorescence intensity (a.u.)"

[[record]]
sequence_content = "CTCTCGAAGCTGCCCTAGCCTCTCCGCTGCTCCGATCCACCGGAGTCACCTAGTGCAG"
measured_attribute = "binding signal"
reported_measurement = "24500 fluorescence intensity (a.u.)"

[[record]]
sequence_content = "GCCGAGAAGGCATCAACGGCACTGGCGAGGCCCTCTCAGCCGGAGTCACCTAGTGCAG"
measured_attribute = "binding signal"
reported_measurement = "39600 fluorescence intensity (a.u.)"

[[record]]
sequence_content = "CGGCACCACCAGTTGTCCGGCATGCGATGTGGTACCGAGACGGAGTCACCTAGTGCAG"
measured_attribute = "binding signal"
reported_measurement = "49300 fluorescence intensity (a.u.)"

